These measurements were taken from patent US10053463B2.

Target: UniProt:Q99572
Experiment: P2X7 antagonism in human peripheral blood mononuclear cells (PBMCs), IL-1β release
Type: cell-based
Settings: P2X7; Table 3 (additional runs); 10 μM compound; read-out: PBMC 10 μM (% control)
Threshold 20%: remaining activity at 10 µM strictly smaller gives 1, otherwise -1.

The following molecules have reported results that may help.
molecule	category
C[C@H]1Cn2c(nnc2-c2ccc(Cl)cn2)C(=O)N1Cc1cccc(C(F)(F)F)c1Cl [Example 56]	1
CC(c1cccc(C(F)(F)F)c1Cl)N1CCn2c(nnc2-c2cnccn2)C1=O (racemic) [Example 4]	-1
Cc1cnc(-c2nnc3n2C[C@H](C)N(Cc2cccc(C(F)(F)F)c2Cl)C3=O)cn1 [Example 19]	1
C[C@H]1Cn2c(nnc2-c2cnccn2)C(=O)N1Cc1ccccc1 [Example 79]	1
C[C@H]1Cn2c(nnc2-c2ncco2)C(=O)N1Cc1cccc(C(F)(F)F)c1Cl [Example 20]	1
C[C@H]1Cn2c(nnc2C2CCN(C(=O)OC(C)(C)C)C2)C(=O)N1Cc1cccc(C(F)(F)F)c1Cl (some centres unmarked) [Example 58]	-1
C[C@H]1Cn2c(nnc2-c2ccn(C)n2)C(=O)N1Cc1cccc(C(F)(F)F)c1Cl [Example 23]	1

Then this molecule:
Determine whether this molecule shows remaining activity at 10 µM lower than 20% (ties excluded): CC[C@H]1Cn2c(nnc2-c2cc[nH]n2)C(=O)N1Cc1cccc(C(F)(F)F)c1Cl [Example 74] 1

====

Record type: pKi measurement. Applies to: P2X7 (Homo sapiens (Human))
# pKi is unitless: minus log10 of the molar concentration; print number only

// below: answered compounds
compound-structure	assay-system	pKi
C[C@H]1Cn2c(-c3cn[nH]c3)nnc2-c2nnc(-c3cccc(C(F)(F)F)c3Cl)n21	P2X7 (Homo sapiens (Human))	6.90
C[C@H]1Cn2c(-c3nccc(C(F)(F)F)n3)nnc2-c2nnc(-c3cccc(C(F)(F)F)c3Cl)n21	P2X7 (Homo sapiens (Human))	7.20
Cc1ncsc1-c1nnc2n1C[C@H](C)n1c(-c3cccc(C(F)(F)F)c3Cl)nnc1-2	P2X7 (Homo sapiens (Human))	7.20

// next item, pKi requested
Look up pKi for this compound: COc1ccnc(-c2nnc3n2C[C@H](C)n2c(-c4cccc(C(F)(F)F)c4C)nnc2-3)c1 8.30

====

Molecular target: P2X7 (Homo sapiens (Human))
Sequence (Q99572 whole entry): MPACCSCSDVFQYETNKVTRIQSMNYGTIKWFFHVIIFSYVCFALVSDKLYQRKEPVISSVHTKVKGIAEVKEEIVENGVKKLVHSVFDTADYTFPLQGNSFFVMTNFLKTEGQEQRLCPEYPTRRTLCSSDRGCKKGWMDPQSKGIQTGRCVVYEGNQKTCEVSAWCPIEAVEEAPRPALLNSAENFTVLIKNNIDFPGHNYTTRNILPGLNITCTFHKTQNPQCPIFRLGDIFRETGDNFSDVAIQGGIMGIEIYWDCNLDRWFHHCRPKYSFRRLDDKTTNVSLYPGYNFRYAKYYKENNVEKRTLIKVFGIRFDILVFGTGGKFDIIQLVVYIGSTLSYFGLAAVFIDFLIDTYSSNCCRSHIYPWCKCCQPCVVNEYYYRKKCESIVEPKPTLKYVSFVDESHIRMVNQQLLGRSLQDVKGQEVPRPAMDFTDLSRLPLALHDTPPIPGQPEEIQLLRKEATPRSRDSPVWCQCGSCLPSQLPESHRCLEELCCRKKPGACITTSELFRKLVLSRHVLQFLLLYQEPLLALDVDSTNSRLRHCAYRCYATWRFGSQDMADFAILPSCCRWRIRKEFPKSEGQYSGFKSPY
Assay: P2X7 antagonism in human peripheral blood mononuclear cells (PBMCs), IL-1β release
Type: cell-based
Conditions: P2X7; Table 3 (additional runs); 10 μM compound; read-out: PBMC 10 μM (% control)
quantity-kind: remaining activity at 10 µM (%)
Use % as the unit, but write only the number.

Example cases with answers are listed next.
compound	units-symbol	remaining activity at 10 µM
C[C@H]1Cn2c(-c3ccc(F)cn3)nnc2-c2nnc(-c3cccc(C(F)(F)F)c3Cl)n21 [Example 102]	%	1.4
CC(c1cccc(C(F)(F)F)c1Cl)N1C(=O)c2nnc(-c3cnccn3)n2C[C@@H]1C (stereo partly shown) [Example 93]	%	4.5
C[C@H]1Cn2c(nnc2-c2cncs2)C(=O)N1Cc1cccc(C(F)(F)F)c1Cl [Example 37]	%	9
CC[C@H]1Cn2c(nnc2-c2ccc(F)cn2)C(=O)N1Cc1cccc(C(F)(F)F)c1Cl [Example 76]	%	16.9
C[C@H]1Cn2c(nnc2-c2cnccn2)C(=O)N1Cc1cc(N)ccc1Cl [Example 91]	%	11.6

Next item in the queue.
For the record Cc1ccnc(-c2nnc3n2C[C@H](C)n2c(-c4cccc(C(F)(F)F)c4Cl)nnc2-3)c1 [Example 125] , what value of remaining activity at 10 µM is listed for P2X7 (Homo sapiens (Human))? 28.5
